GBA EC50 Ratio (vs PYY(3-36)), [35S]GTPγS: recorded values
Biological target: T1, human Y2 receptor (human, UniProt P49146 1-381)
T1 sequence (looked up): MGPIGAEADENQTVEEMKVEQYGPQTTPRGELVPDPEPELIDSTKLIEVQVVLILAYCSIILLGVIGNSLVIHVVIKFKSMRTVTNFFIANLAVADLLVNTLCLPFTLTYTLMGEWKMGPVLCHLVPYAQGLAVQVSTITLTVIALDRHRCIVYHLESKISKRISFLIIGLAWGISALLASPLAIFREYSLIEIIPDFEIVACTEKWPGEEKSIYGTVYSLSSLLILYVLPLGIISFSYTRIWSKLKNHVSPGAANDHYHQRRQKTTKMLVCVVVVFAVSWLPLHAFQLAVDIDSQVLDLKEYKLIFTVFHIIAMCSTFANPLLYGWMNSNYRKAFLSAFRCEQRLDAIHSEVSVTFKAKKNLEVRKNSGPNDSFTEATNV
Assay: cell-based or functional assay
Positions of bridges follow the written chain, without caps; N, C: chain ends. Non-standard residues stand in square brackets, D forms with d. No end group written: not given here. *: point of attachment. 2‑hydroxyethylcarbamoyl = O=C(NCCO)*; Amidino = amidino group, N=C(N)*; tBuAla = CC(C)(C)C[C@H](N)C(=O)O; Cha = N[C@@H](CC1CCCCC1)C(=O)O; 4Amb = NCc1ccc(C(=O)O)cc1; Ac3c = NC1(C(=O)O)CC1; Aib = CC(C)(N)C(=O)O; Inp = O=C(O)C1CCNCC1; Carbamoyl = NC(=O)*
The response must be a number in ratio with no trailing unit.

Some binders with recorded GBA EC50 Ratio (vs PYY(3-36)), [35S]GTPγS:
| binder | val |
| --- | --- |
| Carbamoyl-D[dP]RH[Cha][Cha]NL[Aib]TRQR[Cha]-NH2 (SMILES CC(C)C[C@H](NC(=O)[C@H](CC(N)=O)NC(=O)[C@H](CC1CCCCC1)NC(=O)[C@H](CC1CCCCC1)NC(=O)[C@H](Cc1c[nH]cn1)NC(=O)[C@H](CCCNC(=N)N)NC(=O)[C@H]1CCCN1C(=O)[C@H](CC(=O)O)NC(N)=O)C(=O)NC(C)(C)C(=O)N[C@H](C(=O)N[C@@H](CCCNC(=N)N)C(=O)N[C@@H](CCC(N)=O)C(=O)N[C@@H](CCCNC(=N)N)C(=O)N[C@@H](CC1CCCCC1)C(N)=O)[C@@H](C)O, also called compound No. 161; ureido-[Asp23,D-Pro24,Cha27,28,36,Aib31]-PYY(23-36)) [Carbamoyl-[Asp23, D-Pro24, Cha27,28,36, Aib31]-PYY(23-36)] | 2.4 |
| Amidino-G[Inp]RH[Cha]INWITRQR[Cha]-NH2 (SMILES CC[C@H](C)[C@H](NC(=O)[C@H](CC1CCCCC1)NC(=O)[C@H](Cc1c[nH]cn1)NC(=O)[C@H](CCCNC(=N)N)NC(=O)C1CCN(C(=O)CNC(=N)N)CC1)C(=O)N[C@@H](CC(N)=O)C(=O)N[C@@H](Cc1c[nH]c2ccccc12)C(=O)N[C@H](C(=O)N[C@H](C(=O)N[C@@H](CCCNC(=N)N)C(=O)N[C@@H](CCC(N)=O)C(=O)N[C@@H](CCCNC(=N)N)C(=O)N[C@@H](CC1CCCCC1)C(N)=O)[C@@H](C)O)[C@@H](C)CC, also called compound No. 96) [Amidino-[Gly23, Pic(4)24, Cha27,36, Ile 28,31, Trp30]-PYY(23-36)] | 1.1 |
| [4Amb]RAYINLFTRQRY-NH2 (N-terminus assumed; SMILES CC[C@H](C)[C@H](NC(=O)[C@H](Cc1ccc(O)cc1)NC(=O)[C@H](C)NC(=O)[C@H](CCCNC(=N)N)NC(=O)c1ccc(CN)cc1)C(=O)N[C@@H](CC(N)=O)C(=O)N[C@@H](CC(C)C)C(=O)N[C@@H](Cc1ccccc1)C(=O)N[C@H](C(=O)N[C@@H](CCCNC(=N)N)C(=O)N[C@@H](CCC(N)=O)C(=O)N[C@@H](CCCNC(=N)N)C(=O)N[C@@H](Cc1ccc(O)cc1)C(N)=O)[C@@H](C)O, also called compound No. 59) [4-Aminomethylbenzoyl-[Ala26, Ile28, Phe31]-PYY(25-36)] | 6.6 |
| [4Amb]RHYKNLIERQRY-NH2 (lactam 5-9; N-terminus assumed; SMILES CC[C@H](C)[C@@H]1NC(=O)[C@H](CC(C)C)NC(=O)[C@H](CC(N)=O)NC(=O)[C@@H](NC(=O)[C@H](Cc2ccc(O)cc2)NC(=O)[C@H](Cc2c[nH]cn2)NC(=O)[C@H](CCCNC(=N)N)NC(=O)c2ccc(CN)cc2)CCCCNC(=O)CC[C@@H](C(=O)N[C@@H](CCCNC(=N)N)C(=O)N[C@@H](CCC(N)=O)C(=O)N[C@@H](CCCNC(=N)N)C(=O)N[C@@H](Cc2ccc(O)cc2)C(N)=O)NC1=O, also called compound No. 26) [cyclo(28-32)-4-Aminomethylbenzoyl-[Lys28, Ile31, Glu32]-PYY(25-36)] | 11 |
| Ac-S[dP]RH[Cha][Cha]NL[Ac3c]TRQR[Cha]-NH2 (SMILES CC(=O)N[C@@H](CO)C(=O)N1CCC[C@@H]1C(=O)N[C@@H](CCCNC(=N)N)C(=O)N[C@@H](Cc1c[nH]cn1)C(=O)N[C@@H](CC1CCCCC1)C(=O)N[C@@H](CC1CCCCC1)C(=O)N[C@@H](CC(N)=O)C(=O)N[C@@H](CC(C)C)C(=O)NC1(C(=O)N[C@H](C(=O)N[C@@H](CCCNC(=N)N)C(=O)N[C@@H](CCC(N)=O)C(=O)N[C@@H](CCCNC(=N)N)C(=O)N[C@@H](CC2CCCCC2)C(N)=O)[C@@H](C)O)CC1, also called compound No. 131) [Ac-[D-Pro24, Cha27,28,36, Acpc31]-PYY(23-36)] | 3.6 |
| {2‑hydroxyethylcarbamoyl}-E[dP]RH[Cha][Cha]NK[Aib]TRQR[Cha]-NH2 (SMILES C[C@@H](O)[C@H](NC(=O)C(C)(C)NC(=O)[C@H](CCCCN)NC(=O)[C@H](CC(N)=O)NC(=O)[C@H](CC1CCCCC1)NC(=O)[C@H](CC1CCCCC1)NC(=O)[C@H](Cc1c[nH]cn1)NC(=O)[C@H](CCCNC(=N)N)NC(=O)[C@H]1CCCN1C(=O)[C@H](CCC(=O)O)NC(=O)NCCO)C(=O)N[C@@H](CCCNC(=N)N)C(=O)N[C@@H](CCC(N)=O)C(=O)N[C@@H](CCCNC(=N)N)C(=O)N[C@@H](CC1CCCCC1)C(N)=O, also called compound No. 192) [2-Hydroxyethylcarbamoyl-[Glu23, D-Pro24, Cha27,28,36, Lys30, Aib31]-PYY(23-36)] | 1.2 |

# binder Ac-S[dP]RH[Cha][Cha]NL[Aib]TRQR[tBuAla]-NH2 (SMILES CC(=O)N[C@@H](CO)C(=O)N1CCC[C@@H]1C(=O)N[C@@H](CCCNC(=N)N)C(=O)N[C@@H](Cc1c[nH]cn1)C(=O)N[C@@H](CC1CCCCC1)C(=O)N[C@@H](CC1CCCCC1)C(=O)N[C@@H](CC(N)=O)C(=O)N[C@@H](CC(C)C)C(=O)NC(C)(C)C(=O)N[C@H](C(=O)N[C@@H](CCCNC(=N)N)C(=O)N[C@@H](CCC(N)=O)C(=O)N[C@@H](CCCNC(=N)N)C(=O)N[C@@H](CC(C)(C)C)C(N)=O)[C@@H](C)O, also called compound No. 198) [Ac-[D-Pro24, Cha27,28, Aib31, Leu(Me)36]-PYY(23-36)] ; its GBA EC50 Ratio (vs PYY(3-36)), [35S]GTPγS = 7.1
